target: c-Src SH2; assay: SH2 binding enrichment of the phosphorylated peptide, bacterial display (enrichment ratio); higher = better substrate or ligand; peptides without Tyr show the background
measured_parameter: SH2 binding enrichment
Just the number, please, no unit after it.

Field: example entries. Status: answers known.
monomer_sequence	SH2 binding enrichment
AELVRYYMEHH [PTPN11_Y80_Q79R]	0.69
TEAEPYYRSLR [NPHS1_Y1138]	0.707

Alright, here's another sequence for you.
What SH2 binding enrichment value was documented for this sequence, RCLKDYGEFEV [GINS1_Y156] ?
0.685

* * *

Recorded measurements of SH2 binding enrichment, one per entry
biological target: c-Src SH2; assay: SH2 binding enrichment of the phosphorylated peptide, bacterial display (enrichment ratio); higher = better substrate or ligand; peptides without Tyr show the background;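 also: peptide library displayed on the E. coli surface as eCPX fusions, selected cells deep-sequenced, score is each peptide's frequency after selection divided by its frequency in the input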

Field: example entries. Status: answers known.
monomer_sequence	reported_measurement
VAVVQYSGMGQ [COL6A1_Y878_T881M]	0.603
FGGLRYGFGGL [KRTAP20-2_Y13_V17G_YF]	0.601
TIQSMYGCDVG [HLA-B_Y123_L119I]	0.581

What SH2 binding enrichment value was documented for this sequence, ASFPLYEPAKM [MKI67_Y340] ?
0.535

Now try TLKDVCDDGKY [RPS6KA3_Y483_Y483C] .
0.594

Now try CNTIHYNYMCN [TP53_Y234_T230N] .
6.74

Now try NGVSFYINLCQ [IGF2R_Y2025_YF] .
0.396

Now try WAAQRYGRELR [BAD_Y110] .
0.508

Now try CSGNCYLDIRP [FBN1_Y1535_R1530C] .
1.37

Now try MASTSYDFCRV [BST2_Y6_YF] .
1.66

Now try WSRAMYPDLGP [STARD8_Y330] .
0.608

Now try YETSHYLASPD [CTNND2_Y1217_P1218L] .
1.1

Now try AKKKMYSLKTK [AGXT_Y231_R233L] .
1.54

Now try NHFKIHNLCAE [PTEN_Y68_Y68H_YF] .
0.513

Now try ALTDNYMYLVI [HAGH_Y61] .
0.437

Now try CPYNLYAEQLS [HGD_Y40] .
0.705

Now try IWDLKYTIENP [SND1_Y178_R174W] .
0.467

Now try ILILKYPIEHG [ACTA1_Y71_T68I] .
1.58

Now try ADRNHYRRFPR [YBX1_Y145_YF] .
0.488

Now try RQQEDYLLYKQ [RARRES1_Y159] .
0.561

* * *

Recorded measurements of phosphorylation enrichment, one per entry
biological target: Jak2 (UniProt O60674); test: phosphorylation enrichment, bacterial display (enrichment ratio); higher = better substrate or ligand; peptides without Tyr show the background
Sequence (O60674 whole entry, looked up): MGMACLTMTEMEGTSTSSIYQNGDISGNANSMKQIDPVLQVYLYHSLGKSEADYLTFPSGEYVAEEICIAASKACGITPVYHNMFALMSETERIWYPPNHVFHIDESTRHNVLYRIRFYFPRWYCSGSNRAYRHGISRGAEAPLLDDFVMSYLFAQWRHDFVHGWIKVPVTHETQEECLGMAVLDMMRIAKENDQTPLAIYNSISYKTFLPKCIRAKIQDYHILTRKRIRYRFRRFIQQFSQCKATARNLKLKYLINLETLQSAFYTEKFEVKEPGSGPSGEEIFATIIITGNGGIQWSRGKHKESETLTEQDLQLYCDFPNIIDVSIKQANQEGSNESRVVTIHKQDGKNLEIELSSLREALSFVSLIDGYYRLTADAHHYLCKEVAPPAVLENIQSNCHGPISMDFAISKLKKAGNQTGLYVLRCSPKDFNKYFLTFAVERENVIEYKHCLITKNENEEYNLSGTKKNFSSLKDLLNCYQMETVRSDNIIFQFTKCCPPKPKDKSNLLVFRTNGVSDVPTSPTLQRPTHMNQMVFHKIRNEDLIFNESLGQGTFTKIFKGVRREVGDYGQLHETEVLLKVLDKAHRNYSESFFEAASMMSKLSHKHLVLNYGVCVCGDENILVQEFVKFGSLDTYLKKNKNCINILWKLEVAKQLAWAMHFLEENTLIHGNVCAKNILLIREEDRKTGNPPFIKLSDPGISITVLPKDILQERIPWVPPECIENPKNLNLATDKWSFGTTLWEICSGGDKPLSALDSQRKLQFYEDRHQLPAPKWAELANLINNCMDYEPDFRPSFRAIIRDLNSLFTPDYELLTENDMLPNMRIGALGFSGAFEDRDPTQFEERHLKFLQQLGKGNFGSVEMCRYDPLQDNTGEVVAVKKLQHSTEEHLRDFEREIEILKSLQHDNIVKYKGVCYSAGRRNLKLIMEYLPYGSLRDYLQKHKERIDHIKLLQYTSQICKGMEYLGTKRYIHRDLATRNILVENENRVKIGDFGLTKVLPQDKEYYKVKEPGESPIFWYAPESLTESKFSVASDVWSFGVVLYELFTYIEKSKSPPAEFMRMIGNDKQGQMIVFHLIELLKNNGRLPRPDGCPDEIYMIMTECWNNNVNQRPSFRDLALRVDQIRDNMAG
Just the number, please, no unit after it.

Field: example entries. Status: answers known.
monomer_sequence	phosphorylation enrichment
SHNKYYMLVAR [MFSD8_Y134]	1.14
DLDLTYIFPNI [PTEN_Y27_YF]	2.57
GDGRFYMKEAI [PGM1_Y66]	1.03

What phosphorylation enrichment value was documented for this sequence, FKEQGYHRLPP [RIN1_Y681_YF] ?
0.877

Now try PLLTDYSPQLQ [OTC_Y345_S340P] .
0.964
